Assign growth inhibition to each entry below.
Method summary: NCI Yeast Anticancer Drug Screen. Data for the cln2 rad14 strain (AID 165);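 further: 0% = growth equal to vehicle treated cultures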
Experimental context: S. cerevisiae cln2 rad14 strain, at 50.0 µM, hits give high values
Compounds without any hit were thinned out: in the full panel of roughly 79,000, 15% have a hit.
Answers are plain numbers, in %.

Completed entries (count: 2):
# Compound, growth inhibition (%)
rows = [
    ("CC(=O)OCCSSCCOC(C)=O", 6.55),
    ("c1ccc(-c2cc(-c3ccccc3)nc(-c3ccccc3)c2)cc1", -33),
]

For every record below, what is its growth inhibition?
1. C/C(=N\N=C(/C)c1ccc(C)cc1)c1ccc(C)cc1
2. CC(=O)C1CC[C@@]2(C)C(CC[C@H]3[C@@H]4CCC[C@H]([C@H](C)O)[C@@]4(C)CC[C@@H]32)C1 (some centres not stated)
3. CC12CC(=O)OC(Cc3ccccc31)O2 (configuration not stated)

[6.1, 0.4, -1.25]

For every record below, what is its growth inhibition?
1. CN=C(NC)c1ccc(Cl)c(Cl)c1
2. O=[N+]([O-])c1ccc(-c2nc3ccncc3[nH]2)cc1
3. CC(=NC1CCCCC1)c1ccccc1O
4. O=c1[nH]cc(C(F)(C(F)(F)F)C(F)(F)F)c(=O)[nH]1

1: -31.2; 2: -21.6; 3: -23.9; 4: -4.25

For every record below, what is its growth inhibition?
1. O=C1CC2COc3ccccc3C2=NN1c1ccccc1 (configuration not stated)
2. Cc1cc2c(cc1Cl)SSc1cc(Cl)c(C)cc1S(=O)(=O)Nc1nc(N)nn1C(O)n1nc(N)nc1NS2(=O)=O
3. COP(=O)(OC)C(Cc1cn(C(C)=O)c2ccccc12)C(=O)O (configuration not stated)

[1.35, 20.7, -25.1]

====

Method summary: NCI Yeast Anticancer Drug Screen. Data for the cln2 rad14 strain (AID 165);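 further: 0% = growth equal to vehicle treated cultures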
Experimental context: S. cerevisiae cln2 rad14 strain, at 50.0 µM, hits give high values
This is part of a sample that, as a whole, favours compounds with a hit. Of some 79,000 tested, about 15% had one in any assay.
Readout name: growth inhibition (%)
Answers are plain numbers, in %.

Completed entries (count: 3):
# Compound, Recorded result
measured = [
    ("CC(C)N(C(=O)c1ccc([Si](C)(C)C)c(C(=O)N(C(C)C)C(C)C)n1)C(C)C", 9.4),
    ("NC(=O)/N=C/c1c(O)c2ccccc2oc1=O", -3.35),
    ("N#CSCc1ccc(CSC#N)c(Br)c1", 18.6),
]

For every record below, what is its growth inhibition?
1. CN1C(=O)C(CCCN=C(N)N)NC1=S (stereo unspecified)
2. CCOC(=O)c1ccc(N=Nc2c(N)nc(N)nc2N)cc1
3. CC1(CC2(C)SCCCS2)SCCCS1

-12.2
-61.4
-2.35

For every record below, what is its growth inhibition?
1. COC1OC2COC(c3ccccc3)OC2C(OC(=O)c2ccc([N+](=O)[O-])cc2)C1OS(=O)(=O)c1ccc(C)cc1 (stereo unspecified)
2. CNC(C#N)c1ccco1 (stereo unspecified)
3. CCC1(C(=O)O)OC1(C)c1cccs1 (stereo unspecified)
4. CN(C)C1C(CO)C(CO)C1(C)C (stereo unspecified)
5. NC(=O)CNCc1ccccc1

[25.1, 8.4, -27.1, -11.9, -52]

====

Method summary: NCI Yeast Anticancer Drug Screen. Data for the mec2-1 strain (AID 157)
Experimental context: S. cerevisiae mec2-1 strain, at 50.0 µM, hits give high values
About 79,000 compounds went through this panel and 15% of them were active in at least one assay; those are over-represented in the sample as a whole. Calls of active or inactive are those of the source. Cut-off read from the data, not from the text of the source: active = growth inhibition above about 70%; inactive = the rest.
Readout name: growth inhibition

Completed entries (count: 4):
# Compound, Recorded result
data = [
    ("COCn1c(C)c(C)c2c(=O)oc(=O)[nH]c21", "17.7% (inactive)"),
    ("O=C(NCCCNCCCCNCCCNC(=O)C(F)(F)F)C(F)(F)F", "-0.9% (inactive)"),
    ("COc1nc2cc3c(cc2n2cccc12)oc1ccccc13", "7.5% (inactive)"),
    ("Cc1cc(=O)c(O)c(C)o1", "-2.9% (inactive)"),
]

For every record below, what is its growth inhibition?
1. CC(C)N1CN(C(C(=O)N[C@@H]2C(=O)N3C2SC(C)(C)C3C(=O)O)c2ccccc2)CSC1=S (some centres not stated)
2. OC1(C#Cc2ccccc2)c2ccccc2C(O)(C#Cc2ccccc2)c2ccccc21 (configuration not stated)
3. Cc1cc([N+](=O)[O-])ccc1NC(=O)C(=O)C(C(=O)c1ccccc1-c1ccccc1)C1OC(=O)c2ccccc21 (configuration not stated)
4. Cc1ccc(N(C)C)cc1
5. O=C(CN(Cc1ccccc1)Cc1ccccc1)NC(=O)c1ccccc1
6. CC(=O)OC1CC2(c3ccccc3)C(=O)c3ccccc3N2O1 (configuration not stated)

1. -15.4% (inactive)
2. -11.8% (inactive)
3. 12.4% (inactive)
4. -15.1% (inactive)
5. -7.9% (inactive)
6. -16.6% (inactive)

For every record below, what is its growth inhibition?
1. CCOC(=O)C1SCSCC1=O (configuration not stated)
2. O=C1CCSC(=S)N1c1ccc(F)cc1F

1: -1.7% (inactive); 2: 4.65% (inactive)

====

Method summary: NCI Yeast Anticancer Drug Screen. Data for the mec2-1 strain (AID 157)
Experimental context: S. cerevisiae mec2-1 strain, at 50.0 µM, hits give high values
Compounds without any hit were thinned out: in the full panel of roughly 79,000, 15% have a hit.
Assign growth inhibition to each entry below.
Give bare numbers, in %.

Completed entries (count: 5):
# Compound, Unit of measurement, growth inhibition
data = [
    ("CCCCCCCCCCOc1ccc(OCCCCCCCCC)cc1", "%", -15.8),
    ("CCOC(=O)CNC(=O)CNC(=O)CNC(=O)CN", "%", 2.5),
    ("O=c1[nH]nc(-c2ccc(Cl)cc2)[nH]1", "%", -4.25),
    ("CC1Cn2c(nccc2=O)S1 (configuration not stated)", "%", -14.2),
    ("N#Cc1ccccc1NC(=O)C(=O)C(C(=O)c1ccccc1F)C1OC(=O)c2ccccc21 (configuration not stated)", "%", -10.8),
]

For every record below, what is its growth inhibition?
1. CCCCN=C(C)CC(=O)CC(=O)c1ccccc1
2. CC=NC(C)(C)C

1: 23.1; 2: -9.15

====

Method summary: NCI Yeast Anticancer Drug Screen. Data for the mec2-1 strain (AID 157)
Experimental context: S. cerevisiae mec2-1 strain, at 50.0 µM, hits give high values
About 79,000 compounds went through this panel and 15% of them were active in at least one assay; those are over-represented in the sample as a whole.
Readout name: growth inhibition (%)
Answers are plain numbers, in %.

Completed entries (count: 3):
# Compound, Unit of measurement, growth inhibition
records = [
    ("O=C(O)CCc1ccc([N+](=O)[O-])cc1Cl", "%", 4.95),
    ("COc1ccc2nc3ccccc3c(NCCCN(C)C)c2c1[N+](=O)[O-]", "%", -19.6),
    ("COCC1C(COC)C2CCC1C2(Cc1ccccc1)Cc1ccccc1 (configuration not stated)", "%", 12.4),
]

For every record below, what is its growth inhibition?
1. CN1CCN(CC2C3CCC(C3)C2O)CC1 (configuration not stated)
2. CCOC(=O)/C=C(/C)c1ccccc1
3. COc1cc(C)cc(O)c1C=O
4. CCCNCc1cccc2ccnc(C)c12
5. O=CNc1ccc(-c2ccc(NC=O)cc2)cc1
6. CN1CCc2nc(N)nc(-c3nc(N)nc4c3CN(C)CC4)c2C1
7. Cc1[nH]c(=O)nc2nc3ccc(Cl)cc3c(NCCNCCO)c12

1: -18.4; 2: 18.2; 3: -9.95; 4: 9.6; 5: 4.5; 6: -12.2; 7: -42.4

For every record below, what is its growth inhibition?
1. C/C=C/Cc1ccc(O)cc1
2. CC(=O)OCC(=O)[C@@]1(O)CC[C@H]2[C@@H]3C[C@@H](C)[C@@]4(O)CC5(CC[C@]4(C)[C@H]3[C@@H](O)C[C@@]21C)OCC(C)(C)CO5

1. -6
2. 16.2

====

Method summary: NCI Yeast Anticancer Drug Screen. Data for the mec2-1 strain (AID 157)
Experimental context: S. cerevisiae mec2-1 strain, at 50.0 µM
This is part of a sample that, as a whole, favours compounds with a hit. Of some 79,000 tested, about 15% had one in any assay. Active and inactive are the calls of the source. No stated cut-off is given here; in the data, active means growth inhibition above about 70%; inactive means the rest.
Outcome (select one): active, inactive

Which outcome was assigned to `NC(=O)C12CC3CC(CC(Br)(C3)C1)C2` in this test?
inactive

Which outcome was assigned to C=C1C2CC3CCC2C(OC(=O)c2ccccc2C(=O)O)C13 (stereo not given) in this test?
inactive

Which outcome was assigned to `CN(C)c1ccc(-c2cc(C(=O)O)c3cc(I)ccc3n2)c(Cl)c1` in this test?
inactive

Which outcome was assigned to `NC(=N\C1=NCCN1)/C(N)=N/C1=NCCN1` in this test?
inactive

Which outcome was assigned to `COc1cccc2c1C(=O)C=CC2=O` in this test?
active

Which outcome was assigned to `CC(=O)CC(=O)Nc1cccc(C)n1` in this test?
inactive

Which outcome was assigned to `NC1=NS(=O)(=O)c2ccccc21` in this test?
inactive

Which outcome was assigned to CC1(c2ccc(Cl)cc2)NC(=O)N(CC(=O)Nc2ccccc2)C1=O (stereo not given) in this test?
inactive

Which outcome was assigned to `Oc1cncc2ccccc12` in this test?
inactive

Which outcome was assigned to `CON` in this test?
inactive

Which outcome was assigned to `COC(=O)Cc1ccccn1` in this test?
inactive

Which outcome was assigned to COc1cc2cc3c4ccc(OC)c(OC)c4cc[n+]3c(C)c2cc1OC (tested in a mixture with another compound) in this test?
active

Which outcome was assigned to `NC(=O)c1ccc(NC=O)cc1` in this test?
inactive

Which outcome was assigned to `O=c1c2cccnc2ncn1CCCN1CCCCC1` in this test?
inactive

Which outcome was assigned to `C/C(=N\NC(=O)CC(=O)Nc1ccccc1Cl)c1cc2cc(N=Nc3ccccc3Cl)ccc2oc1=O` in this test?
inactive

Which outcome was assigned to `CC(=O)Nc1ccc2oc(=O)[nH]c(=O)c2c1` in this test?
inactive

Which outcome was assigned to `CC1(C)N=C(N)N=C(N)N1c1ccc(CN)cc1` in this test?
inactive

Which outcome was assigned to `Cc1ccc2nc(NC(=O)OCc3ccccc3)sc2c1` in this test?
inactive

Just for reference, PubChem BioAssay (NCI) is where these values come from.
